# test_description: In vitro stability in rat brain homogenate
# Format: in vitro ADME
# test_parameters: male, Sprague-Dawley, tissue homogenate; rat brain homogenate, 1000 ng/mL, 37 °C, incubation 3 hr, LC/MS/MS; mean ± S.E.M. of 5; LLOQ 12.5 ng/mL P3V8; read-out: Percentage of remained
Residues, ends and D or L forms follow the SMILES beside them. *: point of attachment. Palmitoyl = CCCCCCCCCCCCCCCC(=O)*
property_name: remaining at 3 h, 1000 ng/mL (%)
Numbers only, in %.

# remaining at 3 h, 1000 ng/mL of CCCCCCCCCCCCCCCC(=O)N[C@@H](CC(=O)O)C(=O)NCC(=O)N[C@@H](CCCCN)C(=O)N[C@@H](CO)C(=O)N[C@@H](CCCCN)C(=O)NCC(=O)N[C@H](C(=O)N[C@@H](C)C(=O)N[C@@H](Cc1ccc(O)cc1)C(=O)N[C@H](C(=O)N[C@@H](CCC(=O)O)C(=O)N[C@@H](Cc1ccccc1)C(=O)N[C@@H](CCCCN)C(N)=O)[C@@H](C)CC)[C@@H](C)CC [L1P3V8] (Palmitoyl-DGKSKGIAYIEFK-NH2) = 15.8

---

# test_description: In vitro stability in rat brain homogenate
# Format: in vitro ADME
# test_parameters: male, Sprague-Dawley, tissue homogenate; rat brain homogenate, 2000 ng/mL, 37 °C, 100 rpm, incubation 1 hr, LC/MS/MS; mean ± S.E.M. of 5; read-out: Percentage of remained
Residues, ends and D or L forms follow the SMILES beside them. *: point of attachment. Palmitoyl = CCCCCCCCCCCCCCCC(=O)*
property_name: remaining at 1 h, 2000 ng/mL

# remaining at 1 h, 2000 ng/mL of CCCCCCCCCCCCCCCC(=O)N[C@@H](CC(=O)O)C(=O)NCC(=O)N[C@@H](CCCCN)C(=O)N[C@@H](CO)C(=O)N[C@@H](CCCCN)C(=O)NCC(=O)N[C@H](C(=O)N[C@@H](C)C(=O)N[C@@H](Cc1ccc(O)cc1)C(=O)N[C@H](C(=O)N[C@@H](CCC(=O)O)C(=O)N[C@@H](Cc1ccccc1)C(=O)N[C@@H](CCCCN)C(N)=O)[C@@H](C)CC)[C@@H](C)CC [L1P3V8] (Palmitoyl-DGKSKGIAYIEFK-NH2) = 45%

---

# target_system: MJD CAA/G78 RNA
# test_description: Isothermal titration calorimetry binding assay, expanded CAA/G RNA
# test_parameters: ITC; 0.7 mM P3V8 titrated into 0.5 µM MJD CAA/G78 RNA; one binding site model; mean ± S.E.M., at least 3 independent experiments
property_name: pKd
One number for each entry, as −log10 of the molar value.

# pKd of Ac-DGKSKGIAYIEFK-NH2 [P3V8] = 5.53

---

# test_description: Plasma pharmacokinetic study in SD rat
# test_parameters: Sprague-Dawley, rat, in vivo, iv, 3 μmol/kg
Residues, ends and D or L forms follow the SMILES beside them. *: point of attachment. Palmitoyl = CCCCCCCCCCCCCCCC(=O)*
property_name: AUC(0-t) (µM·h)
Numbers only, in µM·h.

# AUC(0-t) of CCCCCCCCCCCCCCCC(=O)N[C@@H](CC(=O)O)C(=O)NCC(=O)N[C@@H](CCCCN)C(=O)N[C@@H](CO)C(=O)N[C@@H](CCCCN)C(=O)NCC(=O)N[C@H](C(=O)N[C@@H](C)C(=O)N[C@@H](Cc1ccc(O)cc1)C(=O)N[C@H](C(=O)N[C@@H](CCC(=O)O)C(=O)N[C@@H](Cc1ccccc1)C(=O)N[C@@H](CCCCN)C(N)=O)[C@@H](C)CC)[C@@H](C)CC [L1P3V8] (Palmitoyl-DGKSKGIAYIEFK-NH2) = 2.99

Reference source for all entries: paper PMC5608758
